Give pIC50 for every item shown.
Biological target: histone deacetylase activity (HeLa nuclear extract)
Experiment: HDAC fluorescent activity assay (Biomol Fluor de Lys), HeLa nuclear extract
Conditions: HeLa nuclear extract as HDAC source; Fluor de Lys substrate; IC50 range; read-out: Inhibitor Activity versus HDAC
pIC50: −log10 of the molar value.

Illustrative cases are given below, each with its answer.
{"Compound": "COC(=O)[C@H]1Cc2c([nH]c3ccccc23)CN1C(=O)CCCCCCC(=O)NO", "pIC50": "> 6.48"}
{"Compound": "COc1ccc2[nH]c3c(c2c1)CCN(C(=O)CCCCCCC(=O)NO)C3", "pIC50": "> 6.48"}
{"Compound": "O=C(CCCCCC(=O)N1CCc2c([nH]c3ccccc23)C1C(F)(F)F)NO (centres unmarked)", "pIC50": "6.00 to 6.48"}
{"Compound": "O=C(CCCCCCCC(=O)N1CCc2c([nH]c3ccccc23)C1)NO", "pIC50": "> 6.48"}

Let's switch to this compound now.
-- ask State its pIC50: O=C(CCCCCCCC(=O)N1CCc2c([nH]c3ccccc23)C1C(F)(F)F)NO (centres unmarked)
-- reply > 6.48
